Test: Aqueous solubility of the compound by HPLC analysis
Assay type: physicochemical
Conditions: water
Quantity Name: solubility (µg/mL)

The examples below pair each entry with its known result.
{"columns": ["Sample Smiles", "Reported Measurement"],
 "data": [
  ["Nc1c2c(=O)[nH]c(C3CCNCC3)cc2nn1-c1ccccc1", 1430],
  ["Cc1cc2c(c(N)nn2C)c(N2CCN(C)CC2)n1", 1160]
]}

I: Cc1[nH]c(=O)c2c(N)nn(C)c2c1-c1ccccc1
II: Cc1[nH]c(=O)c2c(N)n(-c3ccccc3)nc2c1-c1ccccc1
III: Cn1nc(N)c2c(=O)[nH]c(-c3ccccc3)cc21
IN: Rank entries according to their solubility, from the largest number down. A complete answer lists every label in the requested sequence.
OUT: III, II, I
(III: 76 µg/mL, II: 7 µg/mL, I: 2 µg/mL)

###

Biological target: Tyrosine-protein kinase Lyn (Homo sapiens, UniProt P07948)
Sequence (P07948 2-512 limits assumed): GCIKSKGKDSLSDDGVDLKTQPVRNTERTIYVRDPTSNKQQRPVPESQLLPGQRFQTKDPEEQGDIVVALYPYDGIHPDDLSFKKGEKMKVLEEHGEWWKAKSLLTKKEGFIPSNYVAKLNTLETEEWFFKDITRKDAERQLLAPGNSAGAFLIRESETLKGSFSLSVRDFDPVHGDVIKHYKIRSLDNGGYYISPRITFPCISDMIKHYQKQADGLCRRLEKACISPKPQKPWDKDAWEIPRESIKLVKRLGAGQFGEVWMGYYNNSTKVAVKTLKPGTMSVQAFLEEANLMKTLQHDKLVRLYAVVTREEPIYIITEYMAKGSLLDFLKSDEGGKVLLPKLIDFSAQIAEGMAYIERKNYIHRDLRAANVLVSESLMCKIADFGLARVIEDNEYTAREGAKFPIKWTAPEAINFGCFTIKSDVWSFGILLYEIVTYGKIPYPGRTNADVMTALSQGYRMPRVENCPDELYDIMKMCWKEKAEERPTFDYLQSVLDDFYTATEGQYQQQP
Experiment: Inhibition of LYN at 30 uM by microfluidic mobility shift assay
Quantity Name: inhibition (%)

The examples below pair each entry with its known result.
{"columns": ["Sample Smiles", "Quantity Unit", "inhibition"],
 "data": [
  ["Nc1c2c(=O)[nH]c(-c3ccccc3)cc2nn1-c1ccccc1", "%", 96],
  ["CC(C)(C)c1cc2nn(-c3ccccc3)c(N)c2c(=O)[nH]1", "%", 8],
  ["CN1CCN(c2ccc(-c3cc4nn(-c5ccccc5)c(N)c4c(=O)[nH]3)cc2)CC1", "%", 100]
]}

P: Nc1c2cnc(-c3ccccc3)cc2nn1-c1ccccc1
Q: COC(=O)CCc1c(C)[nH]c(=O)c2c(N)nn(C)c12
IN: Dear colleague, could you let me know whether P or Q has the lower recorded inhibition? Thanks. Refer to your chosen entry by its label in the reply.
OUT: Q
(Q: 6%, P: 29%)

I: Nc1n[nH]c2cc(-c3ccncc3)[nH]c(=O)c12
II: Nc1n[nH]c2c3c([nH]c(=O)c12)CCCC3
IN: Return label of the item with the larger inhibition. Candidates: I , II . Refer to your chosen entry by its label in the reply.
OUT: I
(I: 39%, II: 12%)

###

Target: Ribosomal protein S6 kinase alpha-5 (Homo sapiens) (UniProt O75582)
Sequence (O75582 whole entry, looked up): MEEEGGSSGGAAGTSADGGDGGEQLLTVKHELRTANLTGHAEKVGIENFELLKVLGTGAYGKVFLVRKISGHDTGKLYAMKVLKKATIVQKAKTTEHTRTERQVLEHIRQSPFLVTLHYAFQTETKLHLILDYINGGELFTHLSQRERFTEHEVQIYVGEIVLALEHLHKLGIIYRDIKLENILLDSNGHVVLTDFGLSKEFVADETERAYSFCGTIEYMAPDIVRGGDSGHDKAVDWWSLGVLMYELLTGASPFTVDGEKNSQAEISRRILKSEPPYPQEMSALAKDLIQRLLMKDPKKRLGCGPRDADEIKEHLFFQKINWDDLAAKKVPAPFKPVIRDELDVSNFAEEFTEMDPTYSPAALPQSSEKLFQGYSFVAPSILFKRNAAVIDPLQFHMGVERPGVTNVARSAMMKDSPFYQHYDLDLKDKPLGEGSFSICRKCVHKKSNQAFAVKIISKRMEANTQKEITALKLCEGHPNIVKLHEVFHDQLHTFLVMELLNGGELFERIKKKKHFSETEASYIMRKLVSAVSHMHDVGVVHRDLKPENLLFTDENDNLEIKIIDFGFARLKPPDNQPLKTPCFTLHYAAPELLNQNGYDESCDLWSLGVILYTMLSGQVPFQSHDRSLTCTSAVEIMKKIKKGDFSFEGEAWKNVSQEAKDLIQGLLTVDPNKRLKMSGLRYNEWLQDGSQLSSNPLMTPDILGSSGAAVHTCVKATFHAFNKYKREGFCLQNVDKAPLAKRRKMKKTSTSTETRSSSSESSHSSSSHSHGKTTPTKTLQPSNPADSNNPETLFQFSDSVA
Assay: Inhibition of MSK1 at 30 uM by microfluidic mobility shift assay
Quantity Name: inhibition (%)

The examples below pair each entry with its known result.
{"columns": ["Sample Smiles", "Quantity Unit", "inhibition"],
 "data": [
  ["Cc1cc2c(c(NC(=O)Nc3ccccc3)nn2C)c(=O)[nH]1", "%", 0],
  ["Cc1cc2c(c(N)nn2C)c(N2CCCCC2)n1", "%", 7],
  ["Nc1c2c(=O)[nH]c(-c3ccccn3)cc2nn1-c1ccccc1", "%", 4],
  ["Cc1cc2c(c(N)nn2C)c(N2CC[C@H](O)C2)n1", "%", 4],
  ["COc1ccccc1-c1cc2nn(-c3ccccc3)c(N)c2c(=O)[nH]1", "%", 7]
]}

P: COCCNc1nc(-c2ccccc2)cc2c1c(N)nn2C
Q: Nc1n[nH]c2c3c([nH]c(=O)c12)CCCC3
R: Cc1cc2nn(-c3ccccc3)c(N)c2c(N2CCCCC2)n1
S: Cn1nc(N)c2c(=O)[nH]c(-c3ccccn3)cc21
IN: Rank entries according to their inhibition, from the largest number down. A complete answer lists every label in the requested sequence.
OUT: R, Q, P, S

A: Nc1c2c(=O)[nH]c(-c3ccccc3)cc2nn1-c1ccccc1
B: COCCNc1nc(C)cc2nn(-c3ccccc3)c(N)c12
C: Nc1n[nH]c2cc(-c3ccncc3)[nH]c(=O)c12
IN: Order by inhibition, ascending. A complete answer lists every label in the requested sequence.
OUT: B, A, C
(B: 3%, A: 13%, C: 29%)
